# maps each entry to its IC50
# Test target: PRMT5 (Homo sapiens)
# Sequence (O14744 whole entry, species assumed): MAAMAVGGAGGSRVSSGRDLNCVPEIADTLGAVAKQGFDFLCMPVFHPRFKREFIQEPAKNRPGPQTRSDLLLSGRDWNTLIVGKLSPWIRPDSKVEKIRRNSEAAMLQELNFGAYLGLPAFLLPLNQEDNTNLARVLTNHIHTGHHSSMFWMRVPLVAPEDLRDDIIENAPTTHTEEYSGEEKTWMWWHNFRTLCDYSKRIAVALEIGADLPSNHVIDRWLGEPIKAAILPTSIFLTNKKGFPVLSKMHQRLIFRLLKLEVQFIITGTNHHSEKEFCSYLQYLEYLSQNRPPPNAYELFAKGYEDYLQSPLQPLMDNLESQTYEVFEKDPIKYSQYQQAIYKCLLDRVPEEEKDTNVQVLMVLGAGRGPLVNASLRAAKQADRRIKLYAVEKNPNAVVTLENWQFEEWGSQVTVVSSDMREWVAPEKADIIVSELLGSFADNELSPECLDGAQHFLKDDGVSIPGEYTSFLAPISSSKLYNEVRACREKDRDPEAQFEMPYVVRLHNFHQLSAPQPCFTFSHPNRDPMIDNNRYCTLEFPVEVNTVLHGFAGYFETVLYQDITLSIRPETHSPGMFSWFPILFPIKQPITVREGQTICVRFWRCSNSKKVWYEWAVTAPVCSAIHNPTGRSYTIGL
# Sequence (Q9BQA1 whole entry partner, species assumed): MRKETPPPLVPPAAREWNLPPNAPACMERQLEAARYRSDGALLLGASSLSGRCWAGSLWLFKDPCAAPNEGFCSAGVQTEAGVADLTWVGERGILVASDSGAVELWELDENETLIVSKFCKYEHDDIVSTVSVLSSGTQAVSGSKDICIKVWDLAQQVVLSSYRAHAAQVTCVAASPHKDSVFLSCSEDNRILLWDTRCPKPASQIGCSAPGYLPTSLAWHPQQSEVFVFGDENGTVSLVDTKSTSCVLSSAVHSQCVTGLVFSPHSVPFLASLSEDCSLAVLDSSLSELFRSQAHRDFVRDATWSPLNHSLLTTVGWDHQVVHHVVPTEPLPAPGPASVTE
# value in nM; strip the unit string

See these solved cases before continuing.
> print(dat)
                                 cpd.smiles           test.target  assay.result
1  COCCNC(=O)c1cccc(Cn2cnc3ccc(-c4ccc(CNCCN)cc4)cc32)c1  PRMT5 (Homo sapiens)           114
2       Cc1cc2cc(-c3ccc(CNCCN)cc3)cnc2[nH]1  PRMT5 (Homo sapiens)           316
3  NCCNCc1ccc(-c2ccc3cnn(Cc4cccc(C(=O)N5CCCCC5)c4)c3c2)cc1  PRMT5 (Homo sapiens)           170
4  CN(CCN)Cc1ccc(-c2ccc3ncn(-c4ccccc4)c3c2)cc1  PRMT5 (Homo sapiens)         34700

Data request: Which IC50 is reported with PRMT5 (Homo sapiens) for this entry: Cc1cc(C)c(CN2Cc3ccc(-c4ccc(CNCCN)cc4)cc3C2=O)c(=O)[nH]1 ?
Data returned: 472

Data request: PRMT5 (Homo sapiens) / IC50 / N#Cc1ccc(Cn2cnc3ccc(-c4ccc(CNCCN)cc4)cc32)cc1 : value?
Data returned: 67.6

Data request: What value of IC50 on PRMT5 (Homo sapiens) does NCCNCc1ccc(-c2ccc3nc(-c4ccc5cccnc5c4)[nH]c3c2)cc1 have?
Data returned: 258

Data request: Query the reported IC50 for PRMT5 (Homo sapiens); item: COc1nc(C)cc(C)c1CNC(=O)c1cc(-c2cccc(CNCCN)c2)nc2c1cnn2C(C)C
Data returned: 30500

Data request: Request: IC50, test system PRMT5 (Homo sapiens), entry CN(C(=O)c1cccc(Cn2cnc3ccc(-c4ccc(CNCCN)cc4)cc32)c1)C1CCCC1
Data returned: 116

Data request: Value wanted: IC50 (PRMT5 (Homo sapiens)) of entry CNCCN(C)Cc1cccc(-c2cc(C(=O)N[C@@H](C)c3ccccc3)c3cnn(Cc4ccccc4F)c3n2)c1
Data returned: 29200

Every entry's value here was drawn from patent US20170280720A1.
